# target_entity: T1, human MuSK (human, UniProt O15146 24-495)
# T1 construct: Recombinant protein coated on ELISA plates (R&D Systems cat. 10189-MK) or on the Biacore chip; also called human muscle-specific tyrosine protein kinase; full length human MuSK
# T1 sequence: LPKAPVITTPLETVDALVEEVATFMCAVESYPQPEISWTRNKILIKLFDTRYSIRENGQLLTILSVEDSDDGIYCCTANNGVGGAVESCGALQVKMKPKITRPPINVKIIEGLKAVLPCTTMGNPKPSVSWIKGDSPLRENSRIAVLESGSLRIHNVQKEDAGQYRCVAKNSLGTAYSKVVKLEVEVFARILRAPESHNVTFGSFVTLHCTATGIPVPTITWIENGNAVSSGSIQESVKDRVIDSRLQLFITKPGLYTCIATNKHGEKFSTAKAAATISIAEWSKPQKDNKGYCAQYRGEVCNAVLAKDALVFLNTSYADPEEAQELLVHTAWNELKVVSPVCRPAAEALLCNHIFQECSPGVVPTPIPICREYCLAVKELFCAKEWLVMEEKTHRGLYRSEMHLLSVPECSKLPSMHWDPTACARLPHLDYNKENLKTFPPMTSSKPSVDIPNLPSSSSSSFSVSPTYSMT
# procedure_details: Biacore T200, MuSK on chip (200RU), 22.2 nM Fab, dissociation pH 7.4
reported_property: koff (s⁻¹)
Give the quantity in s⁻¹, number only.

// Input: X2m4 Fab (Fab, V domains shown, Fab format) VH: EVQLVESGGGLVQPGGSLRLSCAASGFTVSSSSIHWVRQAPGKGLEWVASISSSYGSTSYADSVKGRFTISADTSKNTAYLQMNSLRAEDTAVYYCARSEGDRYVSGYSGLDYWGQGTLVTVSS VL: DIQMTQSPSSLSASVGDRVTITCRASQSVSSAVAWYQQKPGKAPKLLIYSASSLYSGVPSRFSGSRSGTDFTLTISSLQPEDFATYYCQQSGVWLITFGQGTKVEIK . Output its koff only.
0.00867
